I'd be grateful if you could share measured Soluble 60-mer huBAFF (4 pM) Neutralization IC50 for these entries.
target: Recombinant soluble 60-mer human BAFF (His-HuBAFF 134-285) (human, UniProt Q9Y275 134-285); assay: cell-based or functional assay
# answer = value followed by unit

# input Please list Soluble 60-mer huBAFF (4 pM) Neutralization IC50 recorded for the binder 441E6F2 (antibody, V domains shown) VH: RVQLKESGPGLVAPSQSLFITCTVSGFSLTTYEINWVRQSPGKGLEWLGVIWTGGTTKYNSAFISRLSITKDNSKSLVFLKMSSLQTDDTAIYYCVREGRRYYAMDYWGQGTSVTVSS VL: NIVLTQSPASLAVSLGQRATISCRTSESVDSYGNSFMFWFQQKPGQAPKLLIFLTSNLESGVPARFSGSGSRTDFTLTIDPVEADDAATYYCQQSNEDPRTFGGGTKLEIK
# output 16 pM

# input Look up and state reported Soluble 60-mer huBAFF (4 pM) Neutralization IC50 for 320F9C5 (antibody, V domains shown) VH: QVTLKESGPGILQSSQTLSLTCSFSGFSLRTFGMGVGWIRQPSGKGLEWLAHIWWNDDKSSHPALKSRLTISKDTSKNQVFLKIANVDTAETATYYCVRIGPSITTVAEGFAYWGQGTLVTVSA VL: DIVMTQSQKFMSTTVGDRVSITCKASQNVGSVVAWYQQRPGQSPTLLIYSASNRYTGVPDRFTGSGSGTDFTLTISNMQSEDLADYFCQQYSSYPLTFGAGTKLELK
# output 10 pM

Data provenance is patent US20190309034A1.
